Test system: SNB-19
Test: NCI tumour cell line growth inhibition, 48 h
The source made the active and inactive calls. No stated cut-off is given here; in the data, active = GI50 up to about 1.1 µM and inactive = higher.
Reported GI50 values for a set of molecules
assay_readout: GI50

1) CSc1ccc2c(cc1=O)[C@@H](NC(=O)c1cc(O)c(O)c(O)c1)CCc1cc(O)c(O)c(O)c1-2 :: 81.3 µM (inactive)
2) O=c1[nH]nc(-c2ccccc2)n1/N=C/c1c[nH]c2ccccc12 :: > 100 µM (inactive)
3) CC(=O)OC[C@@H]1[C@H]2CC(=O)O[C@H]2C[C@H]1OC(C)=O :: > 100 µM (inactive)
4) c1ccc2c3c([nH]c2c1)[C@H]1C2CCCCN2CN1CC3 (stereo not given in full) :: > 100 µM (inactive)
5) O=C1c2ccccc2-c2c1c(-c1ccc(F)cc1)nc1ccc3ccccc3c21 :: > 100 µM (inactive)
6) O=C1C(Cl)=C(N2CCN(CCOCCO)CC2)C(=O)c2ncccc21 :: > 10 µM (inactive)
7) CCNC1(c2cccc(C)c2)OC(C)(C)c2cccc3cccc1c23 (stereo not given) :: 18.2 µM (inactive)
8) CCOC(=O)C(=[N+]=[N-])C(=O)CN1C(=O)c2ccccc2C1=O :: > 100 µM (inactive)
9) OCCNCN(CNCCO)c1nc(N(CNCCO)CNCCO)nc(N(CNCCO)CNCCO)n1 :: 0.0708 µM (active)
10) COC1C=COC2(C)Oc3c(C)c(O)c4c(O)c(c(C5SCCS5)c(O)c4c3C2=O)NC(=O)C(C)=C/C=C\C(C)C2OC(C)(C)OC(C2C)C(C)C(OC(C)=O)C1C (stereo not given) :: 16.4 µM (inactive)

====

Each entry below carries its reported GI50.
Test system: K562
Assay: NCI tumour cell line growth inhibition, 48 h
Calls of active or inactive are those of the source. Rule as the data show it: active = GI50 up to about 1.1 µM and inactive = higher.
assay_readout: GI50

1. N#Cc1cccc(-n2[nH]c(=O)ccc2=O)c1 :: > 100 µM (inactive)
2. N/N=C(\c1nc2ccc(Cl)cc2nc1O)C(O)c1ccc(Cl)c(Cl)c1 (stereo not given) :: > 100 µM (inactive)
3. Nc1[nH]cnc2ncnc1-2 :: > 248 µM (inactive)
4. Cc1cc(-c2ccc[nH]2)on1 :: > 100 µM (inactive)
5. CC(=O)NC1=C[C@@H]([C@H]2COC(C)(C)O2)OC1=O :: > 100 µM (inactive)
6. N/C(=C\c1ccc(/C=C(\NC(=O)c2ccccc2)c2nc3c([nH]2)C(=O)c2ccccc2C3=O)cc1)c1nc2c([nH]1)C(=O)c1ccccc1C2=O :: 14.9 µM (inactive)
7. CN1C(=O)[C@@]2(C=CC3(CC2)OCCO3)c2ccccc21 :: > 50 µM (inactive)
8. C=C1CC2C(=O)N(c3ccccc3)C(=O)C2CC1n1[nH]c(=O)n(Cc2ccccc2)c1=O (stereo not given) :: > 100 µM (inactive)
9. CSc1ccc2c(cc1=O)[C@@H](NC(=O)c1cc(O)c(O)c(O)c1)CCc1cc(O)c(O)c(O)c1-2 :: 3.8 µM (inactive)
10. COc1cc2nc3n(c(=O)c2cc1OC)CCCCC3 :: > 100 µM (inactive)

====

Test system: UO-31
Experiment: NCI tumour cell line growth inhibition, 48 h
The source made the active and inactive calls. Cut-off read from the data, not from the text of the source: active = GI50 up to about 1.1 µM and inactive = higher. Square brackets hold non-standard residues; d marks the D form. Peptide text beside a SMILES is read from it. * marks the point of attachment. X26 = COC1=CC(=O)N(C(=O)[C@@H](O*)C(C)C)[C@H]1Cc1ccccc1; Bn2Val = CC(C)[C@@H](C(=O)*)N(Cc1ccccc1)Cc1ccccc1; NMeV = CN[C@H](C(=O)O)C(C)C; dNMeA = CN[C@H](C)C(=O)O
Classes used: active, inactive

1) C(=N/Nc1ccc(-c2nc3ccccc3[nH]2)cc1)/c1c(-c2ccccc2)[nH]c2ccccc12 :: active
2) CCOC(=O)C(=[N+]=[N-])C(=O)CN1C(=O)c2ccccc2C1=O :: inactive
3) COc1cccc(C(=O)Nc2c3ccccc3nc3ccccc23)c1OC :: inactive
4) COc1ccc(-c2oc3c(CC(=O)O)cccc3c(=O)c2OC)cc1 :: active
5) O=C(O[C@@H](/C=C/c1ccccc1)P1(=O)N(Cc2ccccc2)[C@H]2CCCC[C@@H]2N1Cc1ccccc1)c1ccccc1 :: inactive
6) COC1=CC(=O)N(C(=O)[C@@H](OC(=O)[C@@H](C)N(C)C(=O)[C@@H]2CCCN2C(=O)[C@H](C(C)C)N(C)C(=O)[C@@H](NC(=O)[C@H](C(C)C)N(Cc2ccccc2)Cc2ccccc2)C(C)C)C(C)C)[C@H]1Cc1ccccc1 (Bn2Val-V[NMeV]P[dNMeA]-X26) :: inactive
7) CC(=O)OCc1ccc(O)c(C=O)c1 :: inactive
8) O=C(/C=C/c1cc2ccccc2o1)N1CCN(c2ccccn2)CC1 :: inactive
9) CCNC1(c2cccc(C)c2)OC(C)(C)c2cccc3cccc1c23 (centres undefined) :: inactive
10) O=C1C(Cl)=C(NCCF)C(=O)c2ncccc21 :: inactive
11) C[C@]12CC[C@H](OCCC#N)CC1=CC[C@@H]1C2CC[C@]2(C)/C(=N/OCCC#N)CCC12 (some centres undefined) :: inactive
12) OC1CC2CCC(C1)N2CCCN1c2ccccc2Sc2ccc(Cl)cc21 (centres undefined) :: inactive
13) O=C(O)c1ccccc1/C=C1\Cc2cc3c(cc2C1=O)CCC3 :: inactive
14) Cc1cc(=O)oc2c1cc(OCC(=O)OCCN1CCCCC1)c1occ(C)c12 :: inactive
15) CN(Cc1cc(Cl)c(Cl)cc1NC(=O)CN)[C@H]1CCCC[C@@H]1N1CCCC1 :: inactive
16) COc1ccc(CN2C(=O)CCC/C=C\[C@H]2CI)cc1 :: inactive
17) Cc1c(/C=N\NC(=S)N(C)CCN(C)C(=S)N/N=C\c2c(C)n(C)n(-c3ccccc3)c2=O)c(=O)n(-c2ccccc2)n1C :: inactive
18) COc1ccc2c(=O)c3ccoc3[nH]c2c1 :: inactive
19) O=[N+]([O-])/C(Cl)=C(/C(Cl)=C(Cl)Cl)N1CCCCC1 :: inactive
20) Cc1ccc([N+](=O)[O-])cc1NC(=O)C(=O)C1CCC2=C(Sc3ccccc3N2)C1=O (centres undefined) :: inactive
21) CO[C@]12C[C@H](CNC(=O)c3ccc[nH]3)O[C@H]1NC(=O)N2 :: inactive
22) COc1cc2c(c(OC)c1OC)-c1ccc(=O)c(O)cc1[C@@H](NC(C)=O)CC2 [COLCHICEINE] :: inactive
23) COc1cccc(C2c3cc4c(cc3OC(NNc3ccccc3)C2C)OCO4)c1OC (centres undefined) :: inactive
24) C=C(OC1C(C)=C2C(C1OC(=O)CCCCCCC)C(C)(OC(C)=O)CC(OC(=O)CCC)C1(O)C2OC(=O)C1(C)O)/C(C)=C/C (centres undefined) :: active
25) O=C(N(O)c1ccccc1Cl)C(O)(c1ccccc1)c1ccccc1 :: inactive
26) O=C1c2ccccc2-c2c1c(-c1ccc(F)cc1)nc1ccc3ccccc3c21 :: inactive
27) Nc1nc(NCCCO)cc(=O)[nH]1 :: inactive
28) N#Cc1cccc(-n2[nH]c(=O)ccc2=O)c1 :: inactive
29) O=C(Nc1ccccc1C(=O)Nc1nccs1)c1ccccc1 :: inactive
30) Cc1cc(-c2ccc[nH]2)on1 :: inactive
31) NC(=O)c1nnn(Cc2cc(Cl)c(C(=O)c3ccc(Cl)cc3)c(Cl)c2)c1N [CARBOXYAMIDOTRIAZOLE] :: inactive
32) Cc1cc(CCC(=O)NCCNc2c3ccccc3nc3ccccc23)cc(C)c1O[Si](C)(C)C(C)(C)C :: inactive
33) O.O=C([O-])c1ccccc1Nc1ccccc1C(=O)[O-].[Zn+2] :: inactive
34) CC(NC(=O)OC(C)(C)C)C(=O)NC(Cc1ccccc1)C(=O)NCC(=O)ON=C1CCCC1 (centres undefined) :: inactive
35) CCc1cc2c(c3c1CCCC3=O)CC1(Cc3ccc(C(=O)OC)cc3C1)C2 (centres undefined) :: inactive
36) O=C(O)/C=C\C(=O)Nc1ccc(S(=O)(=O)c2ccc(NC(=O)/C=C\C(=O)O)cc2)cc1 :: inactive
37) CCCCCCCCCCOC(=O)NCCC :: inactive
38) COC(=O)c1c(O)ccc2c1c1c(n2Cc2ccc(Cl)cc2Cl)C(=O)c2ccccc2C1=O :: inactive
39) CC1(C)O[C@@H]2[C@@H](COC(=O)c3ccccc3)C[C@@H](C#N)[C@@H]2O1 :: inactive
